# methodSummary: Drug disposition after intravenous injection to beagles, plasma concentration-time curve (Experimental Example 1)
# Assay type: in vivo
# cond: dog, 1 mg/kg iv, read-out: CLtotal
measureName: clearance (mL/min/kg)
Write the number in mL/min/kg without appending the unit.

Item Br.Oc1ccc([C@@H]2CNC[C@H]2c2cccc(O)c2Cl)cc1O (relative stereo) has what recorded clearance? 78

----------
# methodSummary: Oral administration to fasted beagles of compound (II) or (III) with ascorbic acid, plasma drug disposition parameters (Experimental Examples 5 and 6)
# cond: dog, in vivo, po, 3 mg/kg, AUC (0-8 hr) mean ± SE, 3 mg/kg oral + ascorbic acid 15 mg/kg, n=2
measureName: AUC(0-t) at 8 h (ng·h/mL)
The response must be a number in ng·h/mL with no trailing unit.

Look at this compound and give its reported AUC(0-t) at 8 h. Br.Oc1ccc(C2CNCc3c2ccc(O)c3O)cc1O (stereo not shown) 117

----------
# methodSummary: Oral administration to fasted beagles with L-cysteine or L-aspartic acid, plasma drug disposition parameters (Experimental Example 4)
# Type: in vivo
# cond: dog, plasma, po, 3 mg/kg, 3 mg/kg oral + L-cysteine 15 mg/kg, n=2; read-out: AUC (0-8 hr) mean ± SE
measureName: AUC(0-t) at 8 h (ng·h/mL)
Numbers only here, please. The scale is ng·h/mL.

Entry Oc1ccc([C@@H]2CNC[C@H]2c2cccc(O)c2Cl)cc1O (relative stereo) : reported AUC(0-t) at 8 h = ? 24.4

----------
# methodSummary: Oral administration to fasted beagles of compound (II) or (III) with ascorbic acid, plasma drug disposition parameters (Experimental Examples 5 and 6)
# cond: dog, in vivo, po, 3 mg/kg, Cmax mean ± SE, 3 mg/kg oral, none (control), n=2
measureName: Cmax (ng/mL)
Please reply with the bare figure in ng/mL and do not write the unit itself.

For Br.Oc1ccc(C2CNCc3c2ccc(O)c3O)cc1O (stereo not shown) , what is its reported Cmax? 95.6

----------
# methodSummary: Drug disposition after intravenous injection to beagles, plasma concentration-time curve (Experimental Example 1)
# Format: in vivo
# cond: dog, iv, 1 mg/kg, 1 mg/kg iv, phase b, read-out: t1/2b
measureName: half-life (min)
Lab book: enter the figure in min, no units written.

Record request: half-life value, item Br.Oc1ccc([C@@H]2CNC[C@H]2c2cccc(O)c2Cl)cc1O (relative stereo) [compound (VIII)] 8.11

----------
# methodSummary: Oral administration to fasted beagles of compound (II) or (III) with ascorbic acid, plasma drug disposition parameters (Experimental Examples 5 and 6)
# cond: dog, plasma, po, 3 mg/kg, AUC (0-8 hr) mean ± SE, 3 mg/kg oral + ascorbic acid 15 mg/kg, n=2
measureName: AUC(0-t) at 8 h (ng·h/mL)
Provide only the numeric value, understood in ng·h/mL.

Any idea what its AUC(0-t) at 8 h is? The compound is CS(=O)(=O)O.Oc1ccc(C2CNCCc3c2cc(O)c(O)c3Cl)cc1 (stereo not shown) [compound (III), reference compound] 197

----------
# methodSummary: Oral administration to fasted beagles with ascorbic, citric or tartaric acid, plasma drug disposition parameters (Experimental Example 3)
# Type: in vivo
# cond: dog, plasma, po, 3 mg/kg, 3 mg/kg oral + ascorbic acid 3 mg/kg (1:1), n=4; read-out: Tmax mean ± SE (converted)
measureName: Tmax (min)
# value in min; strip the unit string

// query Tmax value for entry Oc1ccc([C@@H]2CNC[C@H]2c2cccc(O)c2Cl)cc1O (relative stereo) [compound (IX)] 34

meta.source: patent US5292521A
